Cited source: patent US8686022B2

- SUBJECT_OF_TEST: p38 MAP-kinase (Homo sapiens)
- ASSAY_COMMENT: p38 MAP-kinase enzymatic assay (phosphorylation of GST-tagged ATF2, chemoluminescence)
- Format: biochemical
- APPLIED_CONDITIONS: inhibitor concentration 1 μM; activated p38 MAP-kinase 1 nM; ATP 100 μM; read-out: p38 (% Inh @ 1 μM)
RESULT_TYPE: inhibition at 1 µM (%)

| MOLECULE | SUBJECT_OF_TEST | RESULT_TYPE | UNIT_OF_MEASUREMENT | DATA_VALUE |
| --- | --- | --- | --- | --- |
| CCN(CC)C1CCN(Cc2cc(C(C)(C)C)cc(NC(=O)c3cc4cccc(CN5CCN(C(=O)[C@@H]6CCCN6C)CC5)c4n3C)c2OC)C1 (stereo partly drawn) [9(4)] | p38 MAP-kinase (Homo sapiens) | inhibition at 1 µM | % | 98 |
| COc1c(NC(=O)c2cc3cccc(CN4CCN(C(=O)[C@@H]5CCCN5C)CC4)c3n2C)cc(C(C)(C)C)cc1C(=O)NC(C)C [10(1)] | p38 MAP-kinase (Homo sapiens) | inhibition at 1 µM | % | 99.1 |
| COc1c(NC(=O)c2cc3cccc(CC4CCCN(C(=O)C5CCN(C)CC5)CC4)c3n2C)cc(C(C)(C)C)cc1NS(C)(=O)=O (stereo not drawn) [1(19)] | p38 MAP-kinase (Homo sapiens) | inhibition at 1 µM | % | 98.5 |

---

- SUBJECT_OF_TEST: cytochrome P450 2C9 (Homo sapiens)
- Sequence (P11712 whole entry): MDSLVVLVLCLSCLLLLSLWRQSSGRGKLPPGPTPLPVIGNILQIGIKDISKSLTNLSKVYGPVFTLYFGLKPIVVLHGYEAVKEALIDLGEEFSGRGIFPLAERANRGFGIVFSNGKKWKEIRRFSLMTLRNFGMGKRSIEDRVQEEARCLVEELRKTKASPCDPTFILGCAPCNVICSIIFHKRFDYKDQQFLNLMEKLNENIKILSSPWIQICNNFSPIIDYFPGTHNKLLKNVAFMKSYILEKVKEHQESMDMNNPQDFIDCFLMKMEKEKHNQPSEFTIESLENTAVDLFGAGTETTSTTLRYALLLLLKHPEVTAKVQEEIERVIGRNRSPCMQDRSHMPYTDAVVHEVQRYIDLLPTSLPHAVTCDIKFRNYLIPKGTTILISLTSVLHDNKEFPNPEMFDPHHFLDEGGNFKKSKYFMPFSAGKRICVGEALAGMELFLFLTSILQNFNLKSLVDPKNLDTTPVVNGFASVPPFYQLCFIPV
- ASSAY_COMMENT: Determining the cyp2C9 activity (O-demethylation of [O-methyl-14C]-naproxen)
- APPLIED_CONDITIONS: human recombinant cytochrome P450 2C9; 37° C.; <0.4 μM when inhibition >50% at lowest concentration; read-out: CYP 2C9 IC50
RESULT_TYPE: IC50 (nM)

| SMILES | SUBJECT_OF_TEST | DATA_VALUE |
| --- | --- | --- |
| COc1c(NC(=O)c2cc3cccc(CN4CCN(C(=O)[C@@H]5CCCN5C)CC4)c3n2C)cc(C(C)(C)C)cc1NC(=O)C(C)C | cytochrome P450 2C9 (Homo sapiens) | 2150 |

I. COc1c(NC(=O)c2cc3cccc(CN4CCCN(C(=O)[C@H]5CCN(C)C5)CC4)c3n2C)cc(C(C)(C)C)cc1NS(C)(=O)=O
II. COc1c(CN2CCC(N(C)C)CC2)cc(C(C)(C)C)cc1NC(=O)c1cc2cccc(CN3CCN(C(=O)[C@@H]4CCCN4C)CC3)c2n1C
Between item I and item II , which reported IC50 is smaller? // respond with label for picked entry I

---

- SUBJECT_OF_TEST: p38 MAP-kinase (Homo sapiens, UniProt Q16539)
- Sequence (Q16539 whole entry): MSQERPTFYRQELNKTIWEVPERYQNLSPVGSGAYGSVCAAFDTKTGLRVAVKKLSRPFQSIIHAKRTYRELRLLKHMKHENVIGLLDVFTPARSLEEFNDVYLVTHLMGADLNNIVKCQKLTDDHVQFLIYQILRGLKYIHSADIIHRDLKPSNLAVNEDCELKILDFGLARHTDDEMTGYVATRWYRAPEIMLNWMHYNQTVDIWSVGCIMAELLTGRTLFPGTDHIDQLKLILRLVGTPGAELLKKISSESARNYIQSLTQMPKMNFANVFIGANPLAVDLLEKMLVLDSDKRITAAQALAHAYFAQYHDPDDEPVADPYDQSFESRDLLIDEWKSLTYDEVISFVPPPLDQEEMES
- ASSAY_COMMENT: p38 MAP-kinase enzymatic assay (phosphorylation of GST-tagged ATF2, chemoluminescence)
- Type: biochemical
- APPLIED_CONDITIONS: inhibitor concentration 1 μM; activated p38 MAP-kinase 1 nM; ATP 100 μM; read-out: p38 (% Inh @ 1 μM)
- Procedure: In this, the amount of a substrate phosphorylated by the kinase is quantified. The test is carried out as follows: The kinase reaction is carried out in the presence of HEPES (20 mM, pH 7), MgCl2 (10 mM), DTT (1 mM) and TWEEN20 (0.01%). […] The concentration of phosphorylated ATF2 is quantified by chemoluminescence-induced light emission. […] When these beads come physically close, visible light is emitted which is measured in a photometer at 520-620 nm. […]
RESULT_TYPE: inhibition at 1 µM (%)

I. COc1c(NC(=O)c2cc3cccc(CN4CCC(C(=O)N5CC[C@H](N(C)C)C5)CC4)c3n2C)cc(C(C)(C)C)cc1NS(C)(=O)=O [1(23)]
II. CCC(C)c1cc(NC(=O)c2cc3cccc(CN4CCN(C(=O)[C@@H]5CCCN5C)CC4)c3n2C)c(OC)c(NS(C)(=O)=O)c1 (some centres unmarked) [11(1)]
Which has the higher inhibition at 1 µM, I or II ? Label of pick, please. I
